// reported hERG current change (%, negative = inhibition) at 10uM for each item listed
Molecular target: human ether-à-go-go-related gene (hERG) potassium channel (human)
Assay: primary screen, population patch clamp on CHO cells stably expressing hERG; higher = less effect of the substance
In all, about 310,000 compounds went through this assay and about 14,000 (4.5%) showed an effect of 50% or more. The effect is printed as a negative number. Only a selection was taken, and strong results are over-represented in it overall.
Write the answer as a number in %, unit excluded.

Known results for compounds:
[
  {
    "Compound": "COc1ccc(-n2c3c(cc(C#N)c2=O)C(=O)CCC3)cc1",
    "Target": "human ether-à-go-go-related gene (hERG) potassium channel (human)",
    "Recorded result": 29.1
  },
  {
    "Compound": "Cc1ccc2nc3c(cc(C(=O)NC4CCS(=O)(=O)C4)n3Cc3ccccc3)c(=O)n2c1 (centres unmarked)",
    "Target": "human ether-à-go-go-related gene (hERG) potassium channel (human)",
    "Recorded result": 19.6
  },
  {
    "Compound": "CCCCn1c(CN2CCN(CCO)CC2)nc2ccccc21",
    "Target": "human ether-à-go-go-related gene (hERG) potassium channel (human)",
    "Recorded result": -66
  }
]

Value lookup for hERG current change (%, negative = inhibition) at 10uM; key = Cc1ccc2nc(SCC(=O)NC3CCCCC3)nc(=O)n2c1
-14.5

Value lookup for hERG current change (%, negative = inhibition) at 10uM; key = CCn1c(CN2CCN(CCO)CC2)nc2ccccc21
5.04

Value lookup for hERG current change (%, negative = inhibition) at 10uM; key = CCOC(=O)Cn1c(-c2ccccc2)ccc(C#N)c1=O
8.28

----------
Molecular target: human ether-à-go-go-related gene (hERG) potassium channel (human, UniProt Q12809)
Sequence (Q12809 whole entry, looked up): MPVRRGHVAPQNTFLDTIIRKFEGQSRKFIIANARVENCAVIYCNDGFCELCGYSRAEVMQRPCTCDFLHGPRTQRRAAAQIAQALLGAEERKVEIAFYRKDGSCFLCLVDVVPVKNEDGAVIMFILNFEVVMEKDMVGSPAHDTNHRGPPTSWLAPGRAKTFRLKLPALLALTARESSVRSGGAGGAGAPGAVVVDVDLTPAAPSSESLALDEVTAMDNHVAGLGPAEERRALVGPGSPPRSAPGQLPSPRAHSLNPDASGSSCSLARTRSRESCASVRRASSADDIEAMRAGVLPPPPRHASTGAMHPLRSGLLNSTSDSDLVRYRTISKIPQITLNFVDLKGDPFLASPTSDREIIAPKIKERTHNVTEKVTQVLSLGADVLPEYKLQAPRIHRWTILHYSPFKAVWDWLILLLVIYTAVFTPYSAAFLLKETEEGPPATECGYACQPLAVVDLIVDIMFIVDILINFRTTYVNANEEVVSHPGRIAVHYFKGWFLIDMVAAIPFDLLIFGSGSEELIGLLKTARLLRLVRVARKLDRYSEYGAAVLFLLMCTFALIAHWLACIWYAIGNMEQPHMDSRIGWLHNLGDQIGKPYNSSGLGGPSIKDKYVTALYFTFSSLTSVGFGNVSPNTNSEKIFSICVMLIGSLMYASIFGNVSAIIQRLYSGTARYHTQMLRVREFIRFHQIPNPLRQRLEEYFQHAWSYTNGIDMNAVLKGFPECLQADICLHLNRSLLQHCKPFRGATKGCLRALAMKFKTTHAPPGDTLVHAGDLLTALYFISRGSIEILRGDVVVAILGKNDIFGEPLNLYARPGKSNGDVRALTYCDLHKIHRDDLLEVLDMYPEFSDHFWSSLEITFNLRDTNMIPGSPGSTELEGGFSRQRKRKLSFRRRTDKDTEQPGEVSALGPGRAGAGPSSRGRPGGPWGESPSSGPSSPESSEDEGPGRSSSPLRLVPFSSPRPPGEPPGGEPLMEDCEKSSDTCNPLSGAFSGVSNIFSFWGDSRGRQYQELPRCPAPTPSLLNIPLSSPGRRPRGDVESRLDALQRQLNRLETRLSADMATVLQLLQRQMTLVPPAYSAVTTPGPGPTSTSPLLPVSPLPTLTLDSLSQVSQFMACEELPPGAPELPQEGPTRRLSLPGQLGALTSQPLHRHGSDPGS
Assay: primary screen, population patch clamp on CHO cells stably expressing hERG; higher = less effect of the substance
The whole screen tested about 310,000 compounds, of which about 14,000 (4.5%) showed an effect of 50% or more. The effect is printed as a negative number. The entries come from a sample that favours strong results as a whole.
Measured parameter: hERG current change (%, negative = inhibition) at 10uM
Write the numeric value and append its unit.

Known results for compounds:
[
  {
    "Compound": "Cc1ccc(/C=N\\NC(=O)Cc2noc3ccccc23)cc1",
    "Target": "human ether-à-go-go-related gene (hERG) potassium channel (human, UniProt Q12809)",
    "Recorded result": "15.6%"
  },
  {
    "Compound": "O=C(CN1CCN(c2ccc(Cl)cc2)CC1)Nc1cccc(F)c1",
    "Target": "human ether-à-go-go-related gene (hERG) potassium channel (human, UniProt Q12809)",
    "Recorded result": "-3.54%"
  },
  {
    "Compound": "COCCNC(=O)CN(C(=O)CCC(=O)Nc1ccccn1)c1ccc(C)c(C)c1",
    "Target": "human ether-à-go-go-related gene (hERG) potassium channel (human, UniProt Q12809)",
    "Recorded result": "16%"
  },
  {
    "Compound": "COC(=O)CSc1nc(N)c(C#N)c(C(C)C)c1C#N",
    "Target": "human ether-à-go-go-related gene (hERG) potassium channel (human, UniProt Q12809)",
    "Recorded result": "-8.45%"
  },
  {
    "Compound": "COCCOC(=O)C1=C(C)NC2=C(C(=O)CCC2)C1c1ccc2c(c1)OCO2 (stereo not shown)",
    "Target": "human ether-à-go-go-related gene (hERG) potassium channel (human, UniProt Q12809)",
    "Recorded result": "-49.6%"
  },
  {
    "Compound": "COc1ccc(CN2C(=O)c3ccccc3C2=O)cc1C(=O)N(C)CC(=O)Nc1c(C)cccc1C",
    "Target": "human ether-à-go-go-related gene (hERG) potassium channel (human, UniProt Q12809)",
    "Recorded result": "-16.7%"
  }
]

human ether-à-go-go-related gene (hERG) potassium channel (human, UniProt Q12809) / hERG current change (%, negative = inhibition) at 10uM / Cc1ccc(-c2noc(CN(C)C(=O)c3ccc(Br)o3)n2)cc1 : value?
-18.7%

human ether-à-go-go-related gene (hERG) potassium channel (human, UniProt Q12809) / hERG current change (%, negative = inhibition) at 10uM / O=C(NCCO)c1nc(C(=O)c2ccccc2)c2ccccc2n1 : value?
15.9%

human ether-à-go-go-related gene (hERG) potassium channel (human, UniProt Q12809) / hERG current change (%, negative = inhibition) at 10uM / CCOc1ccc(NC(=O)CN2CCN(CC(=O)Nc3ccc(F)cc3)CC2)cc1 : value?
-77.2%

human ether-à-go-go-related gene (hERG) potassium channel (human, UniProt Q12809) / hERG current change (%, negative = inhibition) at 10uM / C=CCc1ccc(OC)c(OC)c1 : value?
23.8%

human ether-à-go-go-related gene (hERG) potassium channel (human, UniProt Q12809) / hERG current change (%, negative = inhibition) at 10uM / COC(=O)c1nn(-c2cccc(Cl)c2)ccc1=O : value?;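 further: peak tail current of the secondary pulse compared with the same well before compound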
6.98%

----------
Biological target: human ether-à-go-go-related gene (hERG) potassium channel (human, UniProt Q12809);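 further: peak tail current of the secondary pulse compared with the same well before compound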
Assay: primary screen, population patch clamp on CHO cells stably expressing hERG; higher = less effect of the substance
Description: Briefly, Chinese hamster ovary (CHO) cells stably expressing the hERG channel were dislodged from tissue culture flasks and dispensed into PPC plates. […] During the recording, background leak currents were estimated by a 100 ms step to -80 mV from an initial holding potential of -70 mV and subtracted from the subsequent current measurement. The campaign was conducted in two phases using slight differences in recording protocol. […]
In all, about 310,000 compounds went through this assay and about 14,000 (4.5%) showed an effect of 50% or more. The effect is printed as a negative number. For the sample, strong results were picked, then their nearest neighbours and some compounds at random.
Measured parameter: hERG current change (%, negative = inhibition) at 10uM (%)
Write the answer as a number in %, unit excluded.

Known results for compounds:
[
  {
    "Record smiles": "COc1ccc(NC(=O)CN2CCN(S(=O)(=O)c3ccc(Br)cc3)CC2)c(OC)c1",
    "Target": "human ether-à-go-go-related gene (hERG) potassium channel (human, UniProt Q12809)",
    "Recorded result": 19.8
  },
  {
    "Record smiles": "O=C(CCN1CCN(S(=O)(=O)c2ccc(F)cc2)CC1)Nc1ccccc1F",
    "Target": "human ether-à-go-go-related gene (hERG) potassium channel (human, UniProt Q12809)",
    "Recorded result": -8.34
  }
]

Value lookup for hERG current change (%, negative = inhibition) at 10uM; key = COc1cc2cc(C(=O)N3CCN(c4ccccc4OC)CC3)[nH]c2cc1OC
24.5

Value lookup for hERG current change (%, negative = inhibition) at 10uM; key = O=C(CN1CCN(S(=O)(=O)c2ccc(F)cc2)CC1)Nc1ccccc1F
-56.1

Value lookup for hERG current change (%, negative = inhibition) at 10uM; key = Cc1ccc(-c2nn(-c3ccccc3)cc2/C=C2\SC(=S)N(CCCCCC(=O)O)C2=O)o1
15.1

----------
Biological target: human ether-à-go-go-related gene (hERG) potassium channel (human, UniProt Q12809);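 further: peak tail current of the secondary pulse compared with the same well before compound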
Assay: primary screen, population patch clamp on CHO cells stably expressing hERG; higher = less effect of the substance
Screen size: about 310,000 compounds; about 14,000 (4.5%) showed an effect of 50% or more. Effects have a minus sign here. This excerpt belongs to a sample that is enriched for strong results.
Measured parameter: hERG current change (%, negative = inhibition) at 10uM (%)
Write the answer as a number in %, unit excluded.

Known results for molecules:
[
  {
    "Molecule": "c1ccc(-c2[nH]ncc2CN2CCc3ccccc3C2)cc1",
    "Recorded result": -2.39
  },
  {
    "Molecule": "CCC1C(c2ccccc2)NC(c2ccccc2)CC1(O)c1ccc(F)cc1.Cl (stereo not shown)",
    "Recorded result": 11.4
  },
  {
    "Molecule": "CCN(CC)CCn1c2ccc(F)cc2c2nc(C)sc21.Cl",
    "Recorded result": -54.3
  }
]

Value lookup for hERG current change (%, negative = inhibition) at 10uM; key = Cn1c(CNc2ccccc2)nc2ccccc21
4.27

Value lookup for hERG current change (%, negative = inhibition) at 10uM; key = CCOC(=O)C1=CN(c2cccc(F)c2)C=C(C(=O)OCC)C1c1cc(OC)c(O)c([N+](=O)[O-])c1
-3.91

----------
// reported hERG current change (%, negative = inhibition) at 10uM for each item listed
Molecular target: human ether-à-go-go-related gene (hERG) potassium channel (human, UniProt Q12809);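 further: peak tail current of the secondary pulse compared with the same well before compound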
Assay: primary screen, population patch clamp on CHO cells stably expressing hERG; higher = less effect of the substance
Hit rate of the full screen: of about 310,000 compounds, about 14,000 (4.5%) showed an effect of 50% or more. Effects have a minus sign here. This excerpt belongs to a sample that is enriched for strong results.
Write the answer as a number in %, unit excluded.

Known results for compounds:
[
  {
    "Compound": "CCCCCc1cc(=O)oc2c(C(CCN3CCCC3)c3cc(OC)c(OC)c(OC)c3)c(OC)cc(OC)c12 (centres unmarked)",
    "Units of measure": "%",
    "Recorded result": -65.6
  },
  {
    "Compound": "CC(C)Cn1c(N)c(C(=O)COC(=O)c2cnc(Cl)c(Cl)c2)c(=O)n(C)c1=O",
    "Units of measure": "%",
    "Recorded result": -71.1
  },
  {
    "Compound": "CC(C)Cn1c(N)c(C(=O)COC(=O)c2ccc(O)cc2)c(=O)n(C)c1=O",
    "Units of measure": "%",
    "Recorded result": -10.6
  },
  {
    "Compound": "CC(C)Cn1c(N)c(C(=O)COC(=O)c2cc(F)cc(F)c2)c(=O)n(C)c1=O",
    "Units of measure": "%",
    "Recorded result": -42.1
  }
]

Value lookup for hERG current change (%, negative = inhibition) at 10uM; key = CCCCCc1cc(=O)oc2c(C(CCN3CCCC(C)C3)c3cc(OC)c(OC)c(OC)c3)c(OC)cc(OC)c12 (centres unmarked)
-64.4
